Recorded Emax by entry
test system: Aorta; assay: Vasorelaxation activity against KCl-induced contraction in isolated Wistar rat thoracic endothelium-denulated aortic rings; assay type: functional, tissue-based
measuredProperty: Emax (%)

- Cc1c(CC(=O)OCCCO[N+](=O)[O-])cc(-c2ccc(S(C)(=O)=O)cc2)n1-c1cccc(F)c1: 39
- Cc1c(CC(=O)OCCCO[N+](=O)[O-])cc(-c2ccc(S(C)(=O)=O)cc2)n1-c1ccc(F)cc1: 41
- Cc1c(CC(=O)OCCO[N+](=O)[O-])cc(-c2ccc(S(C)(=O)=O)cc2)n1-c1ccccc1: 65
- CSc1ccc(-n2c(-c3ccc(S(C)(=O)=O)cc3)cc(CC(=O)OCCO[N+](=O)[O-])c2C)cc1: 65
- O=[N+]([O-])OCC(CO[N+](=O)[O-])O[N+](=O)[O-]: 73
- Cc1c(CC(=O)OCCCO[N+](=O)[O-])cc(-c2ccc(S(C)(=O)=O)cc2)n1-c1ccccc1: 44

###

biological target: Prostaglandin G/H synthase 1 (Mus musculus); test: Inhibition of COX-1-mediated PGE2 production in arachidonic acid-stimulated mouse J774 cells at 10 uM incubated for 15 mins prior to arachidonic acid-challenge by radioimmunoassay; assay type: cell-based
measuredProperty: inhibition (%)

* CSc1ccc(-n2c(-c3ccc(S(C)(=O)=O)cc3)cc(CC(=O)OCCCO[N+](=O)[O-])c2C)cc1 | 0
* COc1ccc(-n2c(-c3ccc(S(C)(=O)=O)cc3)cc(CC(=O)OCCO)c2C)cc1 | 5
* Cc1c(CC(=O)OCCCO[N+](=O)[O-])cc(-c2ccc(S(C)(=O)=O)cc2)n1-c1ccccc1 | 27
* Cc1c(CC(=O)OCCO[N+](=O)[O-])cc(-c2ccc(S(C)(=O)=O)cc2)n1-c1cccc(F)c1 | 36
* Cc1c(CC(=O)OCCCO)cc(-c2ccc(S(C)(=O)=O)cc2)n1-c1ccc(F)cc1 | 0
* Cc1c(CC(=O)OCCO[N+](=O)[O-])cc(-c2ccc(S(C)(=O)=O)cc2)n1-c1ccc(F)cc1 | 0
* Cc1c(CC(=O)O)cc(-c2ccc(S(C)(=O)=O)cc2)n1-c1ccccc1 | 0
* Cc1c(CC(=O)OCCO)cc(-c2ccc(S(C)(=O)=O)cc2)n1-c1cccc(F)c1 | 33
* CSc1ccc(-n2c(-c3ccc(S(C)(=O)=O)cc3)cc(CC(=O)OCCO[N+](=O)[O-])c2C)cc1 | 0

###

target: Prostaglandin G/H synthase 2 (Mus musculus, UniProt Q05769); test: Inhibition of COX-2-mediated PGE2 production in LPS-stimulated mouse J774 cells after 24 hrs by radioimmunoassay
Sequence (Q05769 whole entry): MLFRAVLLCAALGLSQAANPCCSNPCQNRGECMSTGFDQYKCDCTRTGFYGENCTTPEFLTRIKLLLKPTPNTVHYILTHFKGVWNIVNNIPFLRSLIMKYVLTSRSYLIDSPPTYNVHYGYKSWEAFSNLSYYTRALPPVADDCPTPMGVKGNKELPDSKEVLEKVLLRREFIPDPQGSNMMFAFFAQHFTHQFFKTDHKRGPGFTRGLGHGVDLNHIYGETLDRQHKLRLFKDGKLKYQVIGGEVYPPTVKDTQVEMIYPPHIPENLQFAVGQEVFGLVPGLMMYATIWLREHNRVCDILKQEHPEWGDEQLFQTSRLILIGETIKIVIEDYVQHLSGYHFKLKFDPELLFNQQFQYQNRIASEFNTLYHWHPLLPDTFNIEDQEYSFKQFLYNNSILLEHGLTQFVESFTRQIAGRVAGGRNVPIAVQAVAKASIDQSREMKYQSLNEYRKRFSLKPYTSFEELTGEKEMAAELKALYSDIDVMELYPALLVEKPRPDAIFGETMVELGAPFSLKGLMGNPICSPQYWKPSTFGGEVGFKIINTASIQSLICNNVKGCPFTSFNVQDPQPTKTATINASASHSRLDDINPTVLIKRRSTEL
measuredProperty: IC50 (nM)

• Cc1c(CC(=O)OCCCO[N+](=O)[O-])cc(-c2ccc(S(C)(=O)=O)cc2)n1-c1ccccc1 = 42
• Cc1c(CC(=O)OCCCO)cc(-c2ccc(S(C)(=O)=O)cc2)n1-c1ccc(F)cc1 = 56
• Cc1c(CC(=O)OCCO)cc(-c2ccc(S(C)(=O)=O)cc2)n1-c1ccc(F)cc1 = 39
• COc1ccc(-n2c(-c3ccc(S(C)(=O)=O)cc3)cc(CC(=O)OCCCO[N+](=O)[O-])c2C)cc1 = 2.4
• Cc1c(CC(=O)OCCO[N+](=O)[O-])cc(-c2ccc(S(C)(=O)=O)cc2)n1-c1ccc(F)cc1 = 29
• CSc1ccc(-n2c(-c3ccc(S(C)(=O)=O)cc3)cc(CC(=O)OCCO[N+](=O)[O-])c2C)cc1 = 17
• Cc1c(CC(=O)O)cc(-c2ccc(S(C)(=O)=O)cc2)n1-c1ccc(F)cc1 = 500
• Cc1c(CC(=O)OCCO)cc(-c2ccc(S(C)(=O)=O)cc2)n1-c1ccccc1 = 96
